# TESTED ON: PCSK9 (Homo sapiens, UniProt Q8NBP7, G670E/V474I)
# Sequence (Q8NBP7 with tags, fused parts or gaps V474I/G670E): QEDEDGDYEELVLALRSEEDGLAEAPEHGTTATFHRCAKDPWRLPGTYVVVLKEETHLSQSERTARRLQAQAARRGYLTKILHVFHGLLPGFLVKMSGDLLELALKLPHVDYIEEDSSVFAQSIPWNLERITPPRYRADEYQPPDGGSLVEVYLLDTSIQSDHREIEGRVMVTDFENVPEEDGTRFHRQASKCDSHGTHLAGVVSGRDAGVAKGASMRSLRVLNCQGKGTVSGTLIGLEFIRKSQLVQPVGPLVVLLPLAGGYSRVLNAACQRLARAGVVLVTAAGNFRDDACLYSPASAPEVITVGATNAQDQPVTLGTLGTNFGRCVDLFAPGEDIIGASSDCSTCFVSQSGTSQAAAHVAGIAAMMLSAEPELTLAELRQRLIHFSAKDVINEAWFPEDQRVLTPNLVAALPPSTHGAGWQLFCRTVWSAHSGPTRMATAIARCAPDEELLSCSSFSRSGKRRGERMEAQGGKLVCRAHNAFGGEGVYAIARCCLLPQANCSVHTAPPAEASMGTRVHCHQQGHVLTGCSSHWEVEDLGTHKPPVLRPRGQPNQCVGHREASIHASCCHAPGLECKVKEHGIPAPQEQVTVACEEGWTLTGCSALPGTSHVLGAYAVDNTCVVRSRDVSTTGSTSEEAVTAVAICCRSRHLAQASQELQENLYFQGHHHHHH
# PROCEDURE SUMMARY: Assay 3 PCSK9 LDL-C uptake assay in HepG2 cells
# MEASUREMENT SETUP: 125 nM PCSK9, pHrodo Red-LDL, read-out: Assay 3 LDL uptake potency
RECORDED ENDPOINT: pEC50
Bear in mind: pEC50 is minus log10 of a mol/L concentration; give just that figure.

Please state recorded pEC50 (tested on PCSK9 (Homo sapiens, UniProt Q8NBP7, G670E/V474I)) of Cc1cnc(N[C@H]2CC[C@H](Nc3ccc(-n4ccc(Cl)cc4=O)cn3)C2)nn1
6.22

Notebook: pull reported pEC50 for PCSK9 (Homo sapiens, UniProt Q8NBP7, G670E/V474I), entry O=C(NC1COC1)c1cnc(N[C@H]2CC[C@H](Nc3ccc(-n4cccc(OC(F)(F)F)c4=O)cn3)C2)nn1
6.70

So what pEC50 did Cc1cnc(N[C@H]2CC[C@H](Nc3ccc(-n4c(=O)n(C)c5ccc(C#N)cc54)cn3)C2)nn1 get with PCSK9 (Homo sapiens, UniProt Q8NBP7, G670E/V474I)?
7.00

Provide the documented pEC50 with PCSK9 (Homo sapiens, UniProt Q8NBP7, G670E/V474I) as the system for O=C(NC1COC1)c1cnc(N[C@H]2CC[C@H](Nc3ccc(-n4ccccc4=O)cn3)C2)nn1
6.70

Give pEC50 (PCSK9 (Homo sapiens, UniProt Q8NBP7, G670E/V474I)) of the following molecule: N#Cc1cccn(-c2ccc(N[C@H]3CC[C@H](Nc4ncc(C5CC5)nn4)C3)nc2)c1=O
7.00

Record lookup: for PCSK9 (Homo sapiens, UniProt Q8NBP7, G670E/V474I), what pEC50 belongs to O=c1c(OC(F)F)cccn1-c1ccc(N[C@H]2CC[C@H](Nc3ncc(C4CC4)nn3)C2)nc1 ?
7.00

Short answer please: pEC50, PCSK9 (Homo sapiens, UniProt Q8NBP7, G670E/V474I), entry O=c1ccc(-c2c[nH]nn2)cn1-c1ccc(N[C@H]2CC[C@H](Nc3ncc(C4CC4)nn3)C2)nc1
7.00

Give the reported pEC50 for Cn1c(=O)n(-c2ccc(N[C@H]3CC[C@H](Nc4ncc(C5CC5)nn4)C3)nc2)c2cc(P(C)(C)=O)ccc21 (system: PCSK9 (Homo sapiens, UniProt Q8NBP7, G670E/V474I)).
7.00

Param readout = pEC50; param system = PCSK9 (Homo sapiens, UniProt Q8NBP7, G670E/V474I); param query = Cc1cnc(N[C@H]2CC[C@H](Nc3ccc(-n4c(=O)n(C)c5cc(C#N)ccc54)cn3)C2)nn1 ; response: value
7.00

Query for PCSK9 (Homo sapiens, UniProt Q8NBP7, G670E/V474I): what pEC50 does the record show for O=c1ccc(-c2nnn[nH]2)cn1-c1ccc(N[C@H]2CC[C@H](Nc3ncc(C4CC4)nn3)C2)nc1 ?
7.00

// fetch PCSK9 (Homo sapiens, UniProt Q8NBP7, G670E/V474I) pEC50 for Cc1cnc(N[C@H]2CC[C@H](Nc3ccc(-n4cccc(C#N)c4=O)cn3)C2)nn1
6.70

Look up pEC50 with PCSK9 (Homo sapiens, UniProt Q8NBP7, G670E/V474I) for this molecule: O=C(NC1COC1)c1cnc(N[C@H]2CC[C@H](Nc3ccc(-n4cccc(C(F)(F)F)c4=O)cn3)C2)nn1
7.00

Lab note: need pEC50 for CN1C(=O)CN(c2ccc(N[C@H]3CC[C@H](Nc4ncc(C5CC5)nn4)C3)nc2)C1=O on PCSK9 (Homo sapiens, UniProt Q8NBP7, G670E/V474I), anyone have it?
6.52

State its pEC50 on PCSK9 (Homo sapiens, UniProt Q8NBP7, G670E/V474I): Cc1cnc(N[C@H]2CC[C@H](Nc3ccc(-n4nccc(Cl)c4=O)cn3)C2)nn1
6.52

Any idea what pEC50 came out for Cc1cnc(N[C@H]2CC[C@H](Nc3ccc(-n4cccc(OC(F)(F)F)c4=O)cn3)C2)nn1 on PCSK9 (Homo sapiens, UniProt Q8NBP7, G670E/V474I)?
6.70
